Where do these numbers come from? They come from the NIST ThermoML archive (doi:10.1021/acs.jced.9b00377).

Details: 318.15 K; 100 kPa; Liquid; Falling or rolling sphere viscometry
experimental_endpoint: viscosity (mPa·s)
Answer format: numeric, mPa·s implied, no suffix.

Field: example entries. Status: answers known.
molecule: CCCCCCCC(=O)[O-].CN(C)C(=[NH2+])N(C)C [1,1,3,3-tetramethylguanidinium octanoate]
experimental_endpoint: viscosity
quantity_unit: mPa·s
test_value: 186.8

molecule: CCCCC(=O)[O-].CN(C)C(=[NH2+])N(C)C [1,1,3,3-tetramethylguanidinium pentanoate]
experimental_endpoint: viscosity
quantity_unit: mPa·s
test_value: 199.7

molecule: CCCCCCC(=O)[O-].CN(C)C(=[NH2+])N(C)C [1,1,3,3-tetramethylguanidinium heptanoate]
experimental_endpoint: viscosity
quantity_unit: mPa·s
test_value: 242.3

molecule: CCCC(=O)[O-].CN(C)C(=[NH2+])N(C)C [1,1,3,3-tetramethylguanidinium butanoate]
experimental_endpoint: viscosity
quantity_unit: mPa·s
test_value: 318.2

What value of viscosity has been recorded for this entry: CCCCCC(=O)[O-].CN(C)C(=[NH2+])N(C)C [1,1,3,3-tetramethylguanidinium hexanoate]
221.1
